# measured.target: HLA-DRB1*0101 (human)
# measurement.description: competition
measure.name: pIC50
Numbers only, as −log10 of the molar value.

get_value(item= WRFLRGYHQYAYDGK [peptide p21 (residues 107-121 of HLA-A2)] , readout=pIC50) returns 9.00
